Kindly state koff for each of the entries shown.
- tested_system: T1, cynomolgus monkey IL-33 expressed with a C-terminal hexahistidine tag (cynomolgus monkey)
- T1 construct: also called MfIL-33-6His; Mf-IL-33-6His
- T1 chain: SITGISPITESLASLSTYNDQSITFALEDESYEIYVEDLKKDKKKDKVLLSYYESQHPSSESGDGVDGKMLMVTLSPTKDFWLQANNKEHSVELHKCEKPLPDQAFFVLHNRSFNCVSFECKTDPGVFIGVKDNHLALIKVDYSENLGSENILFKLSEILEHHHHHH
- assay_overview: SPR 37C pH7.4, mAb captured
One number for each entry, in s⁻¹.

Could you report koff for every entry in the following list?
1. H4H9665P (antibody, human IgG4, V domains shown, Human IgG4 Fc (H4H)) VH: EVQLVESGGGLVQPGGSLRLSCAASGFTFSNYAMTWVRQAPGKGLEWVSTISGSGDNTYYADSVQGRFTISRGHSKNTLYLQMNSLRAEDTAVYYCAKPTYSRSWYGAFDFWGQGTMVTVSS VL: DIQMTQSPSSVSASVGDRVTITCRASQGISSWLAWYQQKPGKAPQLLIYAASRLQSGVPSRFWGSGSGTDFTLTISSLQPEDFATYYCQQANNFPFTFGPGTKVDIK
2. H4H9672P (antibody, human IgG4, V domains shown, Human IgG4 Fc (H4H)) VH: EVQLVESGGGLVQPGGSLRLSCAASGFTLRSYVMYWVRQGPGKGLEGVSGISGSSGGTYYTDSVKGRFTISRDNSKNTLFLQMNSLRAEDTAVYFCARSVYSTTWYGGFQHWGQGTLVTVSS VL: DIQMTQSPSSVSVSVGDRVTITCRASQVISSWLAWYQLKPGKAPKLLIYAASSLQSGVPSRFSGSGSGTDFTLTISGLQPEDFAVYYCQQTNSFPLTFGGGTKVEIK
3. H4H9676P (antibody, human IgG4, V domains shown, Human IgG4 Fc (H4H)) VH: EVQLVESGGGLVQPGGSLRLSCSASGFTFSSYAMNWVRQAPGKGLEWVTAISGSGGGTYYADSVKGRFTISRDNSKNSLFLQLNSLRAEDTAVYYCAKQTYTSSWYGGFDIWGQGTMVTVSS VL: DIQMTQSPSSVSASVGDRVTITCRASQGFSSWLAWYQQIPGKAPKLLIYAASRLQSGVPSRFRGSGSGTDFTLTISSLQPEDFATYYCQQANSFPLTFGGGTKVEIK

Output line:
[0.0021, 0.013, 0.0144]
